# credit: paper PMC10244618

B1: NF2 (merlin) isoform 7, human, full length (507 aa, lacks exons 2-3 = isoform-1 residues 39-121; exon-16 C-terminus), P35240-4 (parent)
chain: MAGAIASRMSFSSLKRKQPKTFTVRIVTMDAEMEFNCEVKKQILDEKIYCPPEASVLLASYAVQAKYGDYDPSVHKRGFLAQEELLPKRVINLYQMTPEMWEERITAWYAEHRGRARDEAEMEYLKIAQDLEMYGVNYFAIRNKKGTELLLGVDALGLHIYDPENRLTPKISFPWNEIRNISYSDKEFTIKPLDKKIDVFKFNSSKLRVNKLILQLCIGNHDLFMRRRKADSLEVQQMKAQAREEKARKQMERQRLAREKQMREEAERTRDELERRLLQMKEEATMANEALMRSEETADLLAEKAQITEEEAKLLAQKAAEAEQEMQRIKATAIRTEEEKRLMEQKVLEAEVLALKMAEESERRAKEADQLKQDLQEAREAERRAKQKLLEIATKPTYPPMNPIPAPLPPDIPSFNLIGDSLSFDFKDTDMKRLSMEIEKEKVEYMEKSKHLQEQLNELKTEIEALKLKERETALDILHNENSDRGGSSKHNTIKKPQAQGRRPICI

# Variants of: B1
# METHOD DESCRIPTION: reverse yeast two-hybrid deep mutational scan (rY2H-seq): NF2 isoform 7 mutant library as bait mated with wild-type prey strains; selection on medium lacking adenine for non-interacting pairs; NextSeq paired-end sequencing; enrichment vs …
# CONDITION NOTES: with KDM1A (lysine-specific histone demethylase 1A; the table's label AOF2 is a gene synonym of KDM1A), O60341; yeast diploids after mating (RBait_S3 x RPrey_S3), 30 °C, selection for reporter genes on NB agar; human ABL2 co-expressed as the kinase-dead K35M mutant …; HIGHER = WEAKER BINDING (the opposite of display enrichments): higher = stronger loss of interaction: reverse Y2H selects yeast in which bait and prey do NOT interact (growth without adenine), so a …; hits-only table; scale: rY2H score; numbering: uniprot, sequence starts at 1
Kindly return label 1 if reported enrichment is no lower than 2; return label 0 if it is lower.

Determine whether this variant has enrichment no lower than 2: L390C
label 1

Determine whether this variant has enrichment no lower than 2: R341K
label 1

Determine whether this variant has enrichment no lower than 2: Q250D
label 0

Determine whether this variant has enrichment no lower than 2: S172P
label 0

Determine whether this variant has enrichment no lower than 2: E34A
label 0

Determine whether this variant has enrichment no lower than 2: E295K
label 0

Determine whether this variant has enrichment no lower than 2: T397R
label 1
